Hello, the source for this data is the OPERA property sets (Mansouri et al. 2018), in case you need it.

logP: recorded values
Returns: the value as a bare number; no unit string appended.

Record Cc1ccc(OCC2CN=C(N)O2)cc1 (stereo not given) , field logP: 1.79

Record COc1ccccc1OCC1CN=C(N)O1 (stereo not given) , field logP: 0.85

Record NC1=NCC(COc2ccc(N3CCOCC3)cc2)O1 (stereo not given) , field logP: 0.6

Record NC1=NCC(COc2ccccc2Cl)O1 (stereo not given) , field logP: 1.77

Record NC1=NCC(COc2ccc(Cl)cc2)O1 (stereo not given) , field logP: 2

* * *

property: logP
Returns: the value as a bare number; no unit string appended.

# annotated cases, reported logP shown
# molecule, logP
measured = [
    ("NC1=NCC(COc2cccc([N+](=O)[O-])c2)O1 (configuration not stated)", 1.23),
    ("NC1=NCC(COc2ccccc2)O1 (configuration not stated)", 1.27),
    ("CCOc1ccccc1OCC1CN=C(N)O1 (configuration not stated)", 1.24),
    ("Cc1ccccc1OCC1CN=C(N)O1 (configuration not stated)", 1.69),
    ("COc1ccc(OCC2CN=C(N)O2)cc1 (configuration not stated)", 1.26),
]

Record NC1=NCC(COc2ccc([N+](=O)[O-])cc2)O1 (configuration not stated) , field logP: 1.17

Record CN(C)c1cccc(OCC2CN=C(N)O2)c1 (configuration not stated) , field logP: 1.4
